conditions: 361.15 K; 100 kPa; Liquid; Alternating current cell with electrodes
Quantity Measured: electrical conductivity
Please provide the amount together with its unit, number first.

Smiles Notation: CCCC[N+]1(C)CCCCC1.O=S(=O)([N-]S(=O)(=O)C(F)(F)F)C(F)(F)F
electrical conductivity: 1.19 S/m
//
Smiles Notation: CC[P+](CC)(CC)CCOC.O=S(=O)([N-]S(=O)(=O)C(F)(F)F)C(F)(F)F
electrical conductivity: 1.84 S/m
//
Smiles Notation: CCCC[N+]1(C)CCCC1.O=S(=O)([N-]S(=O)(=O)C(F)(F)F)C(F)(F)F
electrical conductivity: 2.11 S/m

Below: the item to evaluate.
Give its electrical conductivity value. Item: `CCCCC[P+](CC)(CC)CC.O=S(=O)([N-]S(=O)(=O)C(F)(F)F)C(F)(F)F`
1.17 S/m
